- experimental system: PI3K-γ (Homo sapiens)
- Sequence (P48736 whole entry, species assumed): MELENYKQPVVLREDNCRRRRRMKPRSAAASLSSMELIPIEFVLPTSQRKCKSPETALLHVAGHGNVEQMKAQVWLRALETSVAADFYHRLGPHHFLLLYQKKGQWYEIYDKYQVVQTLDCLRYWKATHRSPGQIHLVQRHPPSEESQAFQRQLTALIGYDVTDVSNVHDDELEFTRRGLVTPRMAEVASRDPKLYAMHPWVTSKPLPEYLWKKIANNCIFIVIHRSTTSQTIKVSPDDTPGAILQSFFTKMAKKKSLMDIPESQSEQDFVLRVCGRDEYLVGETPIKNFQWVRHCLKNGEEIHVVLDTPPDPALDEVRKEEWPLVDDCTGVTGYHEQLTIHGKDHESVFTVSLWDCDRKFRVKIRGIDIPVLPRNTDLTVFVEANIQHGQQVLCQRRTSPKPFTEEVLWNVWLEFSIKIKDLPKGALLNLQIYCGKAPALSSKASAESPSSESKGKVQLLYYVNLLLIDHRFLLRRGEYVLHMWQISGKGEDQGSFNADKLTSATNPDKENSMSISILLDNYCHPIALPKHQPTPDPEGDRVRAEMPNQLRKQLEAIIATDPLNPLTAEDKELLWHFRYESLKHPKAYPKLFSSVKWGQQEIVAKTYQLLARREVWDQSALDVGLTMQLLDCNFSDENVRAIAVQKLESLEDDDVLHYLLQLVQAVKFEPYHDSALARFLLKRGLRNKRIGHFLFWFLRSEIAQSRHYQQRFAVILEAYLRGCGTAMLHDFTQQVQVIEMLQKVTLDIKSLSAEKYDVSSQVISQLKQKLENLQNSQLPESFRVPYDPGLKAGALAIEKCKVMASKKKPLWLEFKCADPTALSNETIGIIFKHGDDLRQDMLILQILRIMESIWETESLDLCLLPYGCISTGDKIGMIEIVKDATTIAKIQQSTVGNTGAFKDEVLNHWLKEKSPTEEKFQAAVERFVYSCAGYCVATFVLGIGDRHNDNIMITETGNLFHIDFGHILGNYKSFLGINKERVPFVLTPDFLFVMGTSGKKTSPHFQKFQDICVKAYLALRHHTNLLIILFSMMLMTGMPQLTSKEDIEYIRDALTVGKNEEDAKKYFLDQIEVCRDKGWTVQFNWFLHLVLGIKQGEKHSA
- assay method text: PI3K-gamma fluorescence polarization assay
- assay conditions: read-out: IC50 PI3Kγ
pIC50: −log10 of the molar value.
Reported pIC50 values for a set of molecules

>  <molecule>
CC(C)N(C)c1nc(-c2ccc(NC(=O)Nc3ccc(OCCN(C)C)cc3)cc2)nc(N2C3CCC2COC3)n1 [Example 391]

>  <experimental system>
PI3K-γ (Homo sapiens)

>  <pIC50>
5.40

$$$$
>  <molecule>
CC(C)(CO)Nc1nc(-c2ccc(NC(=O)Nc3cccnc3)cc2)nc(N2CC3CCC(C2)O3)n1 [Example 261]

>  <experimental system>
PI3K-γ (Homo sapiens)

>  <pIC50>
5.60

$$$$
>  <molecule>
O=C(Nc1ccc(C(=O)NCCO)cc1)Nc1ccc(-c2nc(N3CCOCC3)nc(N3C4CCC3COC4)n2)cc1 [Example 699]

>  <experimental system>
PI3K-γ (Homo sapiens)

>  <pIC50>
7.20

$$$$
>  <molecule>
COC(=O)c1ccc(NC(=O)Nc2ccc(-c3nc(N4CCCOCC4)nc(N4CCOCC4)n3)cc2)cc1 [Example 567]

>  <experimental system>
PI3K-γ (Homo sapiens)

>  <pIC50>
7.05

$$$$
>  <molecule>
C[C@H]1COCCN1c1nc(-c2ccc(NC(=O)Nc3ccc(C(=O)N4CCCCC4)cc3)cc2)nc(N2CCOC[C@@H]2C)n1 [Example 637]

>  <experimental system>
PI3K-γ (Homo sapiens)

>  <pIC50>
6.72

$$$$
>  <molecule>
CC(C)(C)OC(=O)N1C[C@H]2C[C@@H]1CN2c1nc(-c2ccc(NC(=O)Nc3ccncc3)cc2)nc(N2CCOCC2)n1 [Example 256]

>  <experimental system>
PI3K-γ (Homo sapiens)

>  <pIC50>
6.74

$$$$
>  <molecule>
O=C(Nc1ccc(O)cc1)Nc1ccc(-c2nc(N3CCOCC3)nc(N3CCOCC3)n2)cc1 [Example 54]

>  <experimental system>
PI3K-γ (Homo sapiens)

>  <pIC50>
7.06

$$$$
>  <molecule>
COC(=O)c1ccc(NC(=O)Nc2ccc(-c3nc(N4CCOCC4)nc(N4C5CCC4COC5)n3)cc2)cc1 [Example 693]

>  <experimental system>
PI3K-γ (Homo sapiens)

>  <pIC50>
6.54

$$$$
>  <molecule>
CN(C)C(=O)Nc1ccc(NC(=O)Nc2ccc(-c3nc(N4CCOCC4)nc(N4CCOCC4)n3)cc2)cc1 [Example 504]

>  <experimental system>
PI3K-γ (Homo sapiens)

>  <pIC50>
8.00

$$$$
>  <molecule>
CN(C)CCOc1ccc(NC(=O)Nc2ccc(-c3nc(NS(=O)(=O)c4ccccc4)nc(N4CCOCC4)n3)cc2)cc1 [Example 783]

>  <experimental system>
PI3K-γ (Homo sapiens)

>  <pIC50>
6.13

$$$$
>  <molecule>
CCCCc1nc(-c2ccc(NC(=O)Nc3ccncc3)cc2)nc(N2CCOCC2)n1 [Example 186]

>  <experimental system>
PI3K-γ (Homo sapiens)

>  <pIC50>
6.66

$$$$
>  <molecule>
O=C(Nc1ccc(-c2nc(NCC3CCNCC3)nc(N3CC4CCC(C3)O4)n2)cc1)Nc1cccnc1 [Example 169]

>  <experimental system>
PI3K-γ (Homo sapiens)

>  <pIC50>
5.10

$$$$
>  <molecule>
NC(=O)c1ccc(NC(=O)Nc2ccc(-c3nc(N4CCOCC4)nc(N4C5CCC4COC5)n3)cc2)cc1 [Example 35]

>  <experimental system>
PI3K-γ (Homo sapiens)

>  <pIC50>
7.27

$$$$
>  <molecule>
C[C@H]1COCCN1c1nc(-c2ccc(NC(=O)Nc3ccc(CO)cc3)cc2)nc(N2CCOCC2)n1 [Example 91]

>  <experimental system>
PI3K-γ (Homo sapiens)

>  <pIC50>
7.14

$$$$
>  <molecule>
CN1CCN(c2ccc(NC(=O)Nc3ccc(-c4nc(C5CCOCC5)nc(N5C6CCC5COC6)n4)cc3)cc2)CC1 [Example 407]

>  <experimental system>
PI3K-γ (Homo sapiens)

>  <pIC50>
5.65

$$$$
>  <molecule>
COC(=O)c1ccc(NC(=O)Nc2ccc(-c3nc(C(C)C)nc(N4CCOCC4)n3)cc2)cc1 [Example 300]

>  <experimental system>
PI3K-γ (Homo sapiens)

>  <pIC50>
6.97

$$$$
>  <molecule>
CN(C)CCNC(=O)c1ccc(NC(=O)Nc2ccc(-c3nc(-c4ccccc4)nc(N4CCOCC4)n3)cc2)cc1 [Example 545]

>  <experimental system>
PI3K-γ (Homo sapiens)

>  <pIC50>
7.77

$$$$
>  <molecule>
O=C(Nc1ccncc1)Nc1ccc(-c2nc(OC3CCNCC3)nc(N3CCOCC3)n2)cc1 [Example 688]

>  <experimental system>
PI3K-γ (Homo sapiens)

>  <pIC50>
7.45

$$$$
>  <molecule>
O=C(Nc1ccc(C(=O)NCCN2CCCC2)cc1)Nc1ccc(-c2nc(N3CCOCC3)nc(N3C4COCC3COC4)n2)cc1 [Example 774]

>  <experimental system>
PI3K-γ (Homo sapiens)

>  <pIC50>
7.38

$$$$
>  <molecule>
C[C@@H]1COCCN1c1nc(-c2ccc(NC(=O)Nc3ccc(N4CCNCC4)cc3)cc2)nc(C2CCOCC2)n1 [Example 422]

>  <experimental system>
PI3K-γ (Homo sapiens)

>  <pIC50>
5.91

$$$$
>  <molecule>
O=C(Nc1ccc(-c2nc(N3CCOCC3)nc(N3CCC4(CC3)OCCO4)n2)cc1)Nc1cccnc1 [Example 131]

>  <experimental system>
PI3K-γ (Homo sapiens)

>  <pIC50>
6.47

$$$$
>  <molecule>
CCN1CCN(C(=O)c2ccc(NC(=O)Nc3ccc(-c4nc(N5CCOCC5)nc(N5CCOC[C@@H]5C)n4)cc3)cc2)CC1 [Example 620]

>  <experimental system>
PI3K-γ (Homo sapiens)

>  <pIC50>
7.49

$$$$
>  <molecule>
COC(=O)c1ccc(NC(=O)Nc2ccc(-c3nc(N4CCOCC4)nc(N4CCC(NC(C)=O)CC4)n3)cc2)cc1 [Example 656]

>  <experimental system>
PI3K-γ (Homo sapiens)

>  <pIC50>
6.19

$$$$
>  <molecule>
CCCCc1nc(-c2ccc(NC(=O)Nc3ccc(CN4CCN(C)CC4)cc3)cc2)nc(N2CCOCC2)n1 [Example 254]

>  <experimental system>
PI3K-γ (Homo sapiens)

>  <pIC50>
6.60

$$$$
>  <molecule>
O=C(Nc1ccc(C(=O)NCCc2ccncc2)cc1)Nc1ccc(-c2nc(N3CCOCC3)nc(N3C4COCC3COC4)n2)cc1 [Example 779]

>  <experimental system>
PI3K-γ (Homo sapiens)

>  <pIC50>
7.30

$$$$
>  <molecule>
C=Cc1ccc(NC(=O)Nc2ccc(-c3nc(N4CCOCC4)nc(N4C5CCC4COC5)n3)cc2)cc1 [Example 249]

>  <experimental system>
PI3K-γ (Homo sapiens)

>  <pIC50>
6.67

$$$$
>  <molecule>
O=C(Nc1ccc(C(=O)N2CCNCC2)cc1)Nc1ccc(-c2nc(N3CCOCC3)nc(N3C4CCC3COC4)n2)cc1 [Example 756]

>  <experimental system>
PI3K-γ (Homo sapiens)

>  <pIC50>
8.15

$$$$
>  <molecule>
COC(=O)c1cccc(NC(=O)Nc2ccc(-c3nc(-c4ccc(C)cc4)nc(N4CCOCC4)n3)cc2)c1 [Example 578]

>  <experimental system>
PI3K-γ (Homo sapiens)

>  <pIC50>
5.60

$$$$
>  <molecule>
COC(=O)CNC1CCN(c2nc(-c3ccc(NC(=O)Nc4ccncc4)cc3)nc(N3CC4CCC(C3)O4)n2)CC1 [Example 125]

>  <experimental system>
PI3K-γ (Homo sapiens)

>  <pIC50>
5.06

$$$$
